# method: Confirmation and Secondary Assay for Modulators of Hemoglobin Beta Chain Splicing at IVS2 705 locus (AID 930);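 also: HeLa cells stably expressing the EGFP-705 splicing reporter; GFP fluorescence per well restored by corrected splicing of the IVS2-705 intron in EGFP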
# test parameters: HeLa EGFP-705 splicing reporter, GFP fluorescence, 48 h; series mostly up to 46.1 µM
Active and inactive are the calls of the source. Calls follow the shape of the dose curve; as a rule, active = well fitted activation curve with a large enough effect; inconclusive = small, poorly fitted or top-dose-only effect; inactive = flat fitted curve, though single readings scatter. Bridge positions count the residues as written; N and C are the ends. Square brackets hold non-standard residues; d marks the D form. Peptide text beside a SMILES is read from it. * marks the point of attachment. Octanoyl(6-Me) = CCC(C)CCCCC(=O)*; Dab = NCC[CH](N)C(=O)O
quantity name: outcome

COc1ccc2c(=O)c(OC)c(-c3ccccc3)oc2c1: inactive
C/C=C\c1ccc(OC)cc1: inactive
CCCCCCCCCCCCC[N+](C)(C)Cc1ccccc1: inactive
CCC(C)CCCCC(=O)NC(CCN)C(=O)NC(C(=O)NC(CCN)C(=O)NC1CCNC(=O)C(C(C)O)NC(=O)C(CCN)NC(=O)C(CCN)NC(=O)C(CC(C)C)NC(=O)C(Cc2ccccc2)NC(=O)C(CCN)NC1=O)C(C)O (stereo not drawn) ({Octanoyl(6-Me)}-[Dab]T[Dab][Dab][Dab]FL[Dab][Dab]T; lactam 4-C; configuration not given here): inactive
CC(=O)Oc1c2c(c3c(c1CC=C(C)C)O[C@@]14C(=CC5CC1C(C)(C)OC4(C/C=C(\C)C(=O)O)C5=O)C3=O)OC(C)(CCC=C(C)C)C=C2 (stereo partly drawn): inactive
COc1cc2c(cc1OC)C1C(=O)c3ccc4c(c3OC1CO2)C=CC(C)(C)O4 (stereo not drawn): inactive
COc1cc(/C=C/C(=O)N2CCC=CC2=O)cc(OC)c1OC: inactive
COc1cc(C)c2c(=O)cc(-c3ccccc3)oc2c1: inactive
